Sourced from PubChem BioAssay (NCI)

system: HOP-62 NSCLC; assay: NCI-60 one-dose screen, 48 h; conditions: 10 µM unless noted
This is part of a sample that, as a whole, favours compounds with a hit. Of some 83,000 tested, about 20% had one in any assay. Calls of active or inactive are those of the source. How the source made its calls: active means growth percent below 10; inactive means the rest.
Give one outcome, nothing more. List: 1 (active), -1 (inactive)

Asked: So what was the verdict on "Nc1c(C(=O)c2ccccc2)sc2nc(-c3cccs3)ccc12" in this test?
Given back: -1

Asked: Could you kindly confirm the outcome this assay logged for "C/C(=C(/c1ccc(Cl)cc1)c1ccc(OCCN2CCCC2)cc1)c1ccccc1" ?
Given back: -1

Asked: Test call, this compound: "COc1cc(Nc2c(C#N)cnc3cc(OCCCN4CCN(C)CC4)c(OC)cc23)c(Cl)cc1Cl"
Given back: -1

Asked: Could you check what this test reported for "N#Cc1c(NC(=O)c2cccs2)[n+]([O-])c2ccc(F)cc2[n+]1[O-]" ?
Given back: -1

Asked: Query: recorded result category for "Cc1cc(Nc2nc(N[C@@H](C)c3ncc(F)cn3)ncc2Cl)n[nH]1" in this test
Given back: -1

Asked: // param item: "O=C(CNc1nc2ccccc2s1)Nc1ccc(-c2nc3ccccc3s2)cc1" ; yields the recorded call
Given back: -1

Asked: Assay result, entry "O=C(Nc1cccc([N+](=O)[O-])c1)c1ccc(Cl)c(Cl)c1" — outcome?
Given back: 1

Asked: Assay result, entry "O=C(/C=C/c1ccc2c(c1)OCO2)c1c(O)c2ccccc2oc1=O" — outcome?
Given back: -1

Asked: Lab log entry: "CC(C)OP(=O)(CCC(=O)c1c[nH]c2ccccc12)OC(C)C" — outcome as called in the assay?
Given back: -1

Asked: Tell me the recorded outcome of this test for "Cn1ccnc1C(=O)/C=C/c1ccc(CC(=O)Nc2ccc(C(F)(F)F)cc2)cc1" .
Given back: 1

Asked: Returns: the outcome recorded for "N#Cc1cc2[nH]c3ccc(OC(F)(F)F)cc3c2oc1=O" in this assay.
Given back: -1

Asked: # outcome recorded in this test, key = "Cn1cc(-c2cnn3c(N)c(Br)c([C@@H]4CCCNC4)nc23)cn1"
Given back: -1

Asked: Please let me know the test result on file for "COC(=O)N[C@@H](C)CNc1nccc(-c2cn(C(C)C)nc2-c2cc(Cl)cc(NS(C)(=O)=O)c2F)n1" .
Given back: -1

Asked: For "COc1cc2ncnc(Nc3ccc(O)cc3)c2cc1OC" , what call appears in the results of this test?
Given back: -1

Asked: Each compound tested received a call. Report the one for CCCCCCCC12Cc3ccccc3C1=Nc1c(c3ccccc3n1C)C2=O (centres undefined) .
Given back: -1

Asked: // return assay outcome for "CCc1nc2cc(F)c(/C=C/C(=O)NO)cc2c(=O)n1CCc1ccccc1"
Given back: 1

Asked: Please share the test call associated with NC(=O)N1N=C(c2ccc(Cl)cc2)CC1c1cn(-c2ccccc2)nc1-c1ccc(Cl)cc1 (centres undefined) .
Given back: -1

Asked: # fetch the recorded call for "O=c1nc2c(-c3nc4ccccc4s3)n[nH]n2c2sc3c(c12)CCCC3" here
Given back: -1

Asked: What classification did "CCCCCCCC(=O)SCC/C=C/[C@@H]1CC(=O)NCc2nc(co2)C2=N[C@@](C)(CS2)C(=O)N[C@@H](C(C)C)C(=O)O1" end up with in this test?
Given back: 1

Asked: State the result this test recorded for "CNC(=O)c1cnc(C)nc1-c1cc(C(C)(C)C)c(O)c(C(C)(C)C)c1" .
Given back: -1

Asked: Query: recorded result category for "COc1cc2nccc(Oc3ccc(NC(=O)Nc4cc(C)on4)c(Cl)c3)c2cc1OC" in this test
Given back: -1

Asked: Look up the recorded call for "COc1ccc(Nc2ncccc2NC(=O)c2cn(Cc3cccc(Oc4ccccc4)c3)nn2)cc1" in this test.
Given back: -1

Asked: Hi team, can someone confirm the assay call for "CCc1nc2ccc(Cc3ccc(C(=O)NO)cc3)cc2c(=O)n1CCc1ccccc1" ?
Given back: 1

Asked: What outcome does the record of this test show for "Clc1nc(Cl)c2ncn(CC#CCn3cnc4c(Cl)nc(Cl)nc43)c2n1" ?
Given back: -1

Asked: Look up the recorded call for "Nc1cc(C(F)(F)F)c(-c2cc(N3CCOCC3)nc(N3CCOCC3)n2)cn1" in this test.
Given back: 1

Asked: Just curious, what result did "Cn1c(Nc2ccc(C(F)(F)F)cc2)nc2cc(Oc3ccnc(-c4ncc(C(F)(F)F)[nH]4)c3)ccc21" get here?
Given back: -1

Asked: Please let me know the test result on file for "COc1ccc2c(OCc3nnc4ccc(-c5ccccc5)nn34)ccnc2c1" .
Given back: -1

Asked: Tell me the recorded outcome of this test for "COc1cnc2c(c1)C(=O)c1c-2n(CCCn2ccnc2)c(=O)c2cc(Cl)ccc12" .
Given back: 1

Asked: Outcome? "CCN(CC)CCNc1ccc(N=Nc2cnc3ccccc3c2)c2ccccc12"
Given back: 1

Asked: Tell me the recorded outcome of this test for "Cn1cc(-c2ncnc3ccc(-c4cnc(Cl)c(NS(C)(=O)=O)c4)cc23)c2ccccc21" .
Given back: -1

Asked: Lab log entry: "CC(C)(C)c1cnc(CSc2cnc(NC(=O)C3CCNCC3)s2)o1" — outcome as called in the assay?
Given back: 1

Asked: Recorded call for Cc1nn(-c2nc3ccccc3[nH]2)c2c1C(c1ccc(OCc3ccc(F)cc3)cc1)CC(=O)N2 (centres undefined) ?
Given back: -1

Asked: In this assay, the call recorded for "NC1(C(=O)N[C@@H](CCO)c2ccc(Cl)cc2)CCN(c2ncnc3[nH]ccc23)CC1" was what?
Given back: -1

Asked: # lookup: test call for "CCOc1cc2ncc(C#N)c(Nc3ccc(F)c(Cl)c3)c2cc1NC(=O)/C=C/CN(C)C"
Given back: 1

Asked: Hi, sorry to bother you, what did the test record for "CCCCCCCC(=O)SCC/C=C/[C@@H]1CC(=O)NCc2cccc(n2)C2=N[C@@](C)(CS2)C(=O)N[C@@H](C(C)C)C(=O)N1" ?
Given back: -1

Asked: Hey, what did the test say about "Cc1cc(N(CCNc2ccnc3cc(Cl)ccc23)Cc2cccs2)nc(Cl)n1" ?
Given back: 1

Asked: // param item: Nc1nc(=S)c2ncn(C3OC(COC(=O)c4ccc(Cl)cc4)C(OC(=O)c4ccc(Cl)cc4)C3OC(=O)c3ccc(Cl)cc3)c2[nH]1 (centres undefined) ; yields the recorded call
Given back: -1

Asked: Please state the recorded outcome for this compound: "COC(=O)[C@]12CC[C@@H](C)[C@H](C)[C@@H]1C1=CC[C@@H]3[C@@]4(C)C(C#N)=CC(C)=C4CC[C@@]3(C)[C@]1(C)CC2"
Given back: -1

Asked: Which outcome was entered for the compound "O=C1CCC(=O)CC1" in this test?
Given back: -1
